// values below are Ki; system is Carbonic anhydrase 1 (Homo sapiens)
Sequence (P00915 whole entry): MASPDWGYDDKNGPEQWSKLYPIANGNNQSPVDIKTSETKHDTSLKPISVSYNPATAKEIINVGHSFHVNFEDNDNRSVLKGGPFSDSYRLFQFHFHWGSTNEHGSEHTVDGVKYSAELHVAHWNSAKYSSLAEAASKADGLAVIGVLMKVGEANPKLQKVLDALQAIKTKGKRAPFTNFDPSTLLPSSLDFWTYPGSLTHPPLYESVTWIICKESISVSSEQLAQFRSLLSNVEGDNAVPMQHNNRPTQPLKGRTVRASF
Value kind: Ki (nM)

Smiles text	Target or test system	Value measured
COc1ccccc1N1CCN(C(=S)SCC(=O)Nc2ccc(S(N)(=O)=O)cc2)CC1	Carbonic anhydrase 1 (Homo sapiens)	36.6
NS(=O)(=O)c1ccc2nc(NC(=O)CSC(=S)N3CCN(Cc4ccccc4)CC3)sc2c1	Carbonic anhydrase 1 (Homo sapiens)	599
CCN1CCN(C(=S)SCC(=O)Nc2ccc(S(N)(=O)=O)cc2)CC1	Carbonic anhydrase 1 (Homo sapiens)	8.2
NS(=O)(=O)c1ccc2nc(NC(=O)CSC(=S)N3CCN(C(c4ccccc4)c4ccccc4)CC3)sc2c1	Carbonic anhydrase 1 (Homo sapiens)	9150
NS(=O)(=O)c1ccc(NC(=O)CSC(=S)N2CCN(C(c3ccccc3)c3ccccc3)CC2)cc1	Carbonic anhydrase 1 (Homo sapiens)	1810
CCOC(=O)N1CCN(C(=S)SCC(=O)Nc2ccc(S(N)(=O)=O)cc2)CC1	Carbonic anhydrase 1 (Homo sapiens)	54.8
NS(=O)(=O)c1ccc(NC(=O)CSC(=S)N2CCN(Cc3ccccc3)CC2)cc1	Carbonic anhydrase 1 (Homo sapiens)	84.1
NS(=O)(=O)c1ccc2nc(NC(=O)CSC(=S)N3CCCCC3)sc2c1	Carbonic anhydrase 1 (Homo sapiens)	85.6
COc1ccccc1N1CCN(C(=S)SCC(=O)Nc2nc3ccc(S(N)(=O)=O)cc3s2)CC1	Carbonic anhydrase 1 (Homo sapiens)	5030
NS(=O)(=O)c1ccc(NC(=O)CSC(=S)N2CCN(c3ccc(F)c(Cl)c3)CC2)cc1	Carbonic anhydrase 1 (Homo sapiens)	2120
COc1ccc(N2CCN(C(=S)SCC(=O)Nc3ccc(S(N)(=O)=O)cc3)CC2)cc1	Carbonic anhydrase 1 (Homo sapiens)	2080

====

# Target or test system: Carbonic anhydrase 4 (Homo sapiens)
# Sequence (P22748 whole entry): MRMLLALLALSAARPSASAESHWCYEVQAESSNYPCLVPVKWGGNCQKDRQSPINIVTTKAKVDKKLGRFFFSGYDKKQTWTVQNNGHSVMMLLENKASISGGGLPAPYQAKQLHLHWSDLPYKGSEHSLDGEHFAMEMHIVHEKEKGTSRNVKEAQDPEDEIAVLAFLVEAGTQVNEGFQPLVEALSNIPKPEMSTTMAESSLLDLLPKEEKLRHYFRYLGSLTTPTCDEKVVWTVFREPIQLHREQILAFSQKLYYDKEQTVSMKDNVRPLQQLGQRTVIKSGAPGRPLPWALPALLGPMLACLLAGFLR
The label Criterion met is reserved for Ki strictly under 6 µM; Criterion not met covers values equal to or above it.

Smiles text	Target or test system	Assigned label
NS(=O)(=O)c1ccc(NC(=O)CSC(=S)N2CCN(C(c3ccccc3)c3ccccc3)CC2)cc1	Carbonic anhydrase 4 (Homo sapiens)	Criterion not met
NS(=O)(=O)c1ccc(NC(=O)CSC(=S)N2CCOCC2)cc1	Carbonic anhydrase 4 (Homo sapiens)	Criterion met
COc1ccccc1N1CCN(C(=S)SCC(=O)Nc2nc3ccc(S(N)(=O)=O)cc3s2)CC1	Carbonic anhydrase 4 (Homo sapiens)	Criterion not met
NS(=O)(=O)c1ccc2nc(NC(=O)CSC(=S)N3CCN(Cc4ccccc4)CC3)sc2c1	Carbonic anhydrase 4 (Homo sapiens)	Criterion met
CN1CCN(C(=S)SCC(=O)Nc2nc3ccc(S(N)(=O)=O)cc3s2)CC1	Carbonic anhydrase 4 (Homo sapiens)	Criterion met
NS(=O)(=O)c1ccc(NC(=O)CSC(=S)N2CCN(c3ccccc3)CC2)cc1	Carbonic anhydrase 4 (Homo sapiens)	Criterion met
NS(=O)(=O)c1ccc2nc(NC(=O)CSC(=S)N3CCN(C(c4ccccc4)c4ccccc4)CC3)sc2c1	Carbonic anhydrase 4 (Homo sapiens)	Criterion not met
COc1ccc(N2CCN(C(=S)SCC(=O)Nc3nc4ccc(S(N)(=O)=O)cc4s3)CC2)cc1	Carbonic anhydrase 4 (Homo sapiens)	Criterion not met

====

# Target or test system: Carbonic anhydrase 9 (Homo sapiens)
The label YES is reserved for Ki strictly under 30 nM; NO covers values equal to or above it.

Smiles text	Assigned label
NS(=O)(=O)c1ccc(NC(=O)CSC(=S)N2CCN(Cc3ccccc3)CC2)cc1	NO
NS(=O)(=O)c1ccc(NC(=O)CSC(=S)N2CCCCC2)cc1	NO
NS(=O)(=O)c1ccc(NC(=O)CSC(=S)N2CCN(c3ccccc3)CC2)cc1	NO
NS(=O)(=O)c1ccc(NC(=O)CSC(=S)N2CCN(C(c3ccccc3)c3ccccc3)CC2)cc1	NO
CN1CCN(C(=S)SCC(=O)Nc2ccc(S(N)(=O)=O)cc2)CC1	NO
NS(=O)(=O)c1ccc2nc(NC(=O)CSC(=S)N3CCOCC3)sc2c1	YES
CCOC(=O)N1CCN(C(=S)SCC(=O)Nc2ccc(S(N)(=O)=O)cc2)CC1	NO
NS(=O)(=O)c1ccc2nc(NC(=O)CSC(=S)N3CCN(Cc4ccccc4)CC3)sc2c1	YES
CCOC(=O)N1CCN(C(=S)SCC(=O)Nc2nc3ccc(S(N)(=O)=O)cc3s2)CC1	YES
COc1ccccc1N1CCN(C(=S)SCC(=O)Nc2ccc(S(N)(=O)=O)cc2)CC1	NO
CCN1CCN(C(=S)SCC(=O)Nc2nc3ccc(S(N)(=O)=O)cc3s2)CC1	YES

====

# Assay remarks: Cytotoxicity against HGF cells assessed as cell viability at 50 uM incubated for 72 hrs by MTT assay relative to control
# Type: toxicity, cell-based
# Recorded conditions: human, read-out: Activity

Molecule	viability at 72 h, 50 µM
COc1ccccc1N1CCN(C(=S)SCC(=O)Nc2ccc(S(N)(=O)=O)cc2)CC1	> 60%
NS(=O)(=O)c1ccc2nc(NC(=O)CSC(=S)N3CCN(Cc4ccccc4)CC3)sc2c1	> 60%
CCOC(=O)N1CCN(C(=S)SCC(=O)Nc2nc3ccc(S(N)(=O)=O)cc3s2)CC1	> 60%
CC(=O)Nc1nnc(S(N)(=O)=O)s1 [ACETAZOLAMIDE]	> 60%
COc1ccc(N2CCN(C(=S)SCC(=O)Nc3nc4ccc(S(N)(=O)=O)cc4s3)CC2)cc1	> 60%
COc1ccccc1N1CCN(C(=S)SCC(=O)Nc2nc3ccc(S(N)(=O)=O)cc3s2)CC1	> 60%

====

# Target or test system: Carbonic anhydrase 2 (Homo sapiens, UniProt P00918)
pKi: −log10 of the molar value.

Smiles text	pKi
NS(=O)(=O)c1ccc(NC(=O)CSC(=S)N2CCOCC2)cc1	8.14
CCN1CCN(C(=S)SCC(=O)Nc2ccc(S(N)(=O)=O)cc2)CC1	8.31
NS(=O)(=O)c1ccc2nc(NC(=O)CSC(=S)N3CCN(Cc4ccccc4)CC3)sc2c1	6.53
COc1ccc(N2CCN(C(=S)SCC(=O)Nc3ccc(S(N)(=O)=O)cc3)CC2)cc1	6.53
NS(=O)(=O)c1ccc(NC(=O)CSC(=S)N2CCCCC2)cc1	8.22
NS(=O)(=O)c1ccc(NC(=O)CSC(=S)N2CCN(c3ccccc3)CC2)cc1	6.62
NS(=O)(=O)c1ccc(NC(=O)CSC(=S)N2CCN(Cc3ccccc3)CC2)cc1	7.76
COc1ccc(N2CCN(C(=S)SCC(=O)Nc3nc4ccc(S(N)(=O)=O)cc4s3)CC2)cc1	6.44

Data credit: ChEMBL document CHEMBL5352444
